assay-target: mICE (Mus musculus)
Sequence (P29452 123-296 limits assumed): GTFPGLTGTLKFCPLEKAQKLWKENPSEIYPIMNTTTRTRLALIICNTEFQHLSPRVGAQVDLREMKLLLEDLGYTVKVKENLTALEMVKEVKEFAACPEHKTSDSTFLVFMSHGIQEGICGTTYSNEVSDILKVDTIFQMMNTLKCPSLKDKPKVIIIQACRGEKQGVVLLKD
Sequence (P29452 315-402 limits assumed): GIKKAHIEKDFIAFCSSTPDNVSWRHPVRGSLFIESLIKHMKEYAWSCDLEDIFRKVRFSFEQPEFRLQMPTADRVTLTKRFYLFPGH
experimental-details: Dissociation constant Ki and irreversible rate constant k3 for irreversible inhibitors (ICE)
Format: biochemical
test-settings: continuous assay 60 min, reaction initiated by adding enzyme to substrate-inhibitor mixture
Where a SMILES comes first, the peptide text is derived from it. The star is where a group is joined. Cbz = O=C(OCc1ccccc1)*; CH2F = FC*
Lab note: compare Ki with 9 nM, writing 1 if less and 0 if equal or more.

compound	assay-target	classification
C[C@H](NC(=O)C(=O)NCc1cccc2ccccc12)C(=O)N[C@@H](CC(=O)O)C(=O)COC(=O)c1c(Cl)cccc1Cl	mICE (Mus musculus)	0
C[C@H](NC(=O)C(=O)Nc1ccccc1Cl)C(=O)N[C@@H](CC(=O)O)C(=O)COC(=O)c1c(Cl)cccc1Cl [Example 42]	mICE (Mus musculus)	1
CC(C)[C@H](NC(=O)C(=O)Nc1ccccc1-c1ccccc1)C(=O)N[C@@H](CC(=O)O)C(=O)COc1c(F)c(F)cc(F)c1F	mICE (Mus musculus)	0
CCCCCCCc1ccc(NC(=O)C(=O)N[C@H](C(=O)N[C@@H](CC(=O)O)C(=O)COc2c(F)c(F)cc(F)c2F)C(C)C)cc1	mICE (Mus musculus)	0
C[C@H](NC(=O)C(=O)Nc1cccc2c1CCCC2)C(=O)N[C@@H](CC(=O)O)C(=O)COC(=O)c1c(Cl)cccc1Cl [Example 49]	mICE (Mus musculus)	1
CC(NC(=O)C(NC(=O)OCc1ccccc1)C(C)C)C(=O)NC(CC(=O)O)C(=O)CF (stereo not drawn) [refer., Cbz-ValAlaAsp-CH2F, reference compound] (Cbz-Val-Ala-Asp-CH2F; configuration not given here)	mICE (Mus musculus)	0
CC(C)[C@H](NC(=O)C(=O)Nc1cccc2ccccc12)C(=O)N[C@@H](CC(=O)O)C(=O)COC(=O)c1c(Cl)cccc1Cl	mICE (Mus musculus)	1
C[C@H](NC(=O)C(=O)Nc1ccccc1-c1ccccc1)C(=O)N[C@@H](CC(=O)O)C(=O)COC(=O)c1c(Cl)cccc1Cl	mICE (Mus musculus)	0
C[C@H](NC(=O)C(=O)NC1CCCCC1)C(=O)N[C@@H](CC(=O)O)C(=O)COC(=O)c1c(Cl)cccc1Cl	mICE (Mus musculus)	1
C[C@H](NC(=O)C(=O)NCc1cccc2ccccc12)C(=O)N[C@@H](CC(=O)O)C(=O)COP(=O)(c1ccccc1)c1ccccc1	mICE (Mus musculus)	0
CC(C)[C@H](NC(=O)C(=O)Nc1ccccc1C(C)(C)C)C(=O)N[C@@H](CC(=O)O)C(=O)COc1c(F)c(F)cc(F)c1F	mICE (Mus musculus)	1
C[C@H](NC(=O)C(=O)Nc1cccc2c1CCCC2)C(=O)N[C@@H](CC(=O)O)C(=O)COC(=O)c1c(Cl)cccc1Cl [Example 62]	mICE (Mus musculus)	0
CC(C)[C@H](NC(=O)C(=O)Nc1cccc2ccccc12)C(=O)N[C@@H](CC(=O)O)C(=O)COP(=O)(c1ccccc1)c1ccccc1	mICE (Mus musculus)	1
CC(C)[C@H](NC(=O)C(=O)Nc1cc(C(C)(C)C)ccc1C(C)(C)C)C(=O)N[C@@H](CC(=O)O)C(=O)COc1c(F)c(F)cc(F)c1F	mICE (Mus musculus)	0
CC(C)[C@H](NC(=O)C(=O)Nc1cccc2ccccc12)C(=O)NC(CC(=O)O)C(=O)CF (mixture of isomers)	mICE (Mus musculus)	1
CC(C)[C@H](NC(=O)C(=O)Nc1cccc2ccccc12)C(=O)N[C@@H](CC(=O)O)C(=O)COc1c(-c2ccccc2)oc2ccccc2c1=O	mICE (Mus musculus)	0
C[C@H](NC(=O)C(=O)Nc1cccc2c1CCCC2)C(=O)N[C@@H](CC(=O)O)C(=O)COc1c(F)c(F)cc(F)c1F	mICE (Mus musculus)	0
CC(C)[C@H](NC(=O)C(=O)Nc1c(F)c(F)nc(F)c1F)C(=O)N[C@@H](CC(=O)O)C(=O)COc1c(F)c(F)cc(F)c1F	mICE (Mus musculus)	0
C/C=C/OC(=O)Oc1ccc(OCC(=O)[C@H](CC(=O)O)NC(=O)[C@@H](NC(=O)C(=O)Nc2cccc3ccccc23)C(C)C)cc1	mICE (Mus musculus)	0
C[C@H](NC(=O)C(=O)NCc1ccccc1)C(=O)N[C@@H](CC(=O)O)C(=O)COC(=O)c1c(Cl)cccc1Cl	mICE (Mus musculus)	0
C[C@H](NC(=O)C(=O)NCc1cccc2ccccc12)C(=O)N[C@@H](CC(=O)O)C(=O)COc1c(F)c(F)cc(F)c1F	mICE (Mus musculus)	1
CC(C)[C@H](NC(=O)C(=O)NCCc1ccccc1)C(=O)N[C@@H](CC(=O)O)C(=O)COc1c(F)c(F)cc(F)c1F	mICE (Mus musculus)	0
CC(C)[C@H](NC(=O)C(=O)Nc1ccccc1Cl)C(=O)N[C@@H](CC(=O)O)C(=O)COc1c(F)c(F)cc(F)c1F	mICE (Mus musculus)	1
C[C@H](NC(=O)C(=O)Nc1ccccc1C(C)(C)C)C(=O)N[C@@H](CC(=O)O)C(=O)COC(=O)c1c(Cl)cccc1Cl [Example 37]	mICE (Mus musculus)	0
